# Assay: Metabolic stability in mouse liver microsomes
# Assay type: in vitro ADME
# Experimental conditions: 5 μM compound, 1 mg/mL mouse liver microsomes, 37° C., NADPH regenerating system
# Method: In order to confirm the metabolic stability of the synthetic compounds in the liver, 5 μM test compound and 1 mg/mL human, dog, rat or mouse liver microsomes were allowed to react with each other at 37° C. in the presence of the NADPH regenerating system for 1 hour. After 1 hour, the reaction was terminated and the supernatant obtained by centrifugation was analyzed by HPLC. […]
Entry flag: MET if Residual amount (%) of test compound after 1 hour of reaction, Mouse reaches 60%; NOT MET if it does not.

Check out these entries, answers already filled in.
>  <Compound>
Cc1cc(C)c(CN2CCc3c(Cl)c4c(c(C)c3C2=O)OC(C)([C@H]2CC[C@H](N(C)C)CC2)O4)c(=O)[nH]1 (single isomer, unassigned) [Compound 10]

>  <Class label>
NOT MET

$$$$
>  <Compound>
Cc1cc(C)c(CN2CCc3c(Cl)c4c(c(C)c3C2=O)OC(C)([C@H]2CC[C@H](N(C)C)CC2)O4)c(=O)[nH]1 (single isomer, unassigned) [Compound 11]

>  <Class label>
MET

$$$$
>  <Compound>
COc1cc(C)[nH]c(=O)c1CN1CCc2c(C)c3c(c(C)c2C1=O)OC(C)([C@H]1CC[C@H](N(C)C)CC1)O3 (stereo partly shown) [Compound 42]

>  <Class label>
MET

$$$$

# check: Residual amount (%) of test compound after 1 hour of reaction, Mouse of Cc1cc(C)c(CN2CCc3c(Br)c4c(c(C)c3C2=O)OC(C)([C@H]2CC[C@H](N(C)C)CC2)O4)c(=O)[nH]1 (single isomer, unassigned) [Compound 49] is greater than or equal to 60% NOT MET

# check: Residual amount (%) of test compound after 1 hour of reaction, Mouse of Cc1cc(C)c(CN2CCc3c(C)c4c(c(C)c3C2=O)OC(C)([C@H]2CC[C@H](N(C)C)CC2)O4)c(=O)[nH]1 (single isomer, unassigned) [Compound 40] is greater than or equal to 60% MET

---

# System under test: EZH2 (Homo sapiens)
# Sequence (Q15910 whole entry): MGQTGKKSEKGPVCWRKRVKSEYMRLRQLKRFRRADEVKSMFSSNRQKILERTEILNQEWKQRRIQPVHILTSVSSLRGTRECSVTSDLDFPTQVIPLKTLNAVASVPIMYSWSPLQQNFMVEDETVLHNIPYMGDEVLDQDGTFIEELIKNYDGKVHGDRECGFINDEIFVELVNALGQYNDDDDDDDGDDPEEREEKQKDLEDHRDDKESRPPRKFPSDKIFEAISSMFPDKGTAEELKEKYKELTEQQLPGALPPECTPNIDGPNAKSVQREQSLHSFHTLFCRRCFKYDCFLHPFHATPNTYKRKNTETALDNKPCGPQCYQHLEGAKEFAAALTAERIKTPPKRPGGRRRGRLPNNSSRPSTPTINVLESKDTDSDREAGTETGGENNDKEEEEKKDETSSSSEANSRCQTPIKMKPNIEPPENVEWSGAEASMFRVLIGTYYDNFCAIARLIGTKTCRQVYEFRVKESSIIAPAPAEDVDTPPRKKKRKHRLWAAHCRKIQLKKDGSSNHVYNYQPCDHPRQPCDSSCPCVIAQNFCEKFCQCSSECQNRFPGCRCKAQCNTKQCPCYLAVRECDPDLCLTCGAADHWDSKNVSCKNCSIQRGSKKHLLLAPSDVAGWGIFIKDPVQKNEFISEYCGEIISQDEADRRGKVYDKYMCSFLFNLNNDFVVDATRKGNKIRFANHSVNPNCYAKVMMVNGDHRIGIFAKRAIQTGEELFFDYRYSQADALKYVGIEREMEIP
# Sequence (O75530 whole entry partner): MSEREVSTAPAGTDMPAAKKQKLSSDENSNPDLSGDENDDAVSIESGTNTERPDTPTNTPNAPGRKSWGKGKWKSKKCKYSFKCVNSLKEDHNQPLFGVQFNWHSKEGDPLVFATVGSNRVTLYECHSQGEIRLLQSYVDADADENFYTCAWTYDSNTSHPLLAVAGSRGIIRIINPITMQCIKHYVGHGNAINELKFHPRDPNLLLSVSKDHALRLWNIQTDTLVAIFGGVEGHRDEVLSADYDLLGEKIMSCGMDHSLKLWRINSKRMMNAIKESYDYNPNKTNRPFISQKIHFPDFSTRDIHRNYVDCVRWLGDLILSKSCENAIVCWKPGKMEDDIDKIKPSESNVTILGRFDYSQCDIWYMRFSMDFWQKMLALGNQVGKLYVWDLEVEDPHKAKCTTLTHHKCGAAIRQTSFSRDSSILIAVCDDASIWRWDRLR
# Sequence (Q15022 whole entry partner): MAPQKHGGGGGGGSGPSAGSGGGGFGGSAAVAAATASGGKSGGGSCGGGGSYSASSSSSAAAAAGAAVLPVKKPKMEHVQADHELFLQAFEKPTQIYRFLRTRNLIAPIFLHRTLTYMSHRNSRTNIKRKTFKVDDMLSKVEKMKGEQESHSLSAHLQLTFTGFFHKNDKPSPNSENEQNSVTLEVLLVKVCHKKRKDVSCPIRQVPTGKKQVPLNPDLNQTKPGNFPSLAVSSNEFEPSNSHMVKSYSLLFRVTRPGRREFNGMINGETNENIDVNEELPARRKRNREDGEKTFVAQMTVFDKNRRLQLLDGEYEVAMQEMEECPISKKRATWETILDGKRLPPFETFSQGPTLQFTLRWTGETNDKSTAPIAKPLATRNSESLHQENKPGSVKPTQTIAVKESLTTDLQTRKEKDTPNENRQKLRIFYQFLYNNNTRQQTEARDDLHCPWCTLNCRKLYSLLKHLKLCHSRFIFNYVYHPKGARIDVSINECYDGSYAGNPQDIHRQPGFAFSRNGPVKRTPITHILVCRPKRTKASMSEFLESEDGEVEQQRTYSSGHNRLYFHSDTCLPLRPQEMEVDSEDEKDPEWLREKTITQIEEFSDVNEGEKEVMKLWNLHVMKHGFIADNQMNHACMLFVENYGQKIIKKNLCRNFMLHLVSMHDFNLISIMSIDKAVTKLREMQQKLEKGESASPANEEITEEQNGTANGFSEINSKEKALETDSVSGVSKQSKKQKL
# Sequence (Q09028 whole entry partner): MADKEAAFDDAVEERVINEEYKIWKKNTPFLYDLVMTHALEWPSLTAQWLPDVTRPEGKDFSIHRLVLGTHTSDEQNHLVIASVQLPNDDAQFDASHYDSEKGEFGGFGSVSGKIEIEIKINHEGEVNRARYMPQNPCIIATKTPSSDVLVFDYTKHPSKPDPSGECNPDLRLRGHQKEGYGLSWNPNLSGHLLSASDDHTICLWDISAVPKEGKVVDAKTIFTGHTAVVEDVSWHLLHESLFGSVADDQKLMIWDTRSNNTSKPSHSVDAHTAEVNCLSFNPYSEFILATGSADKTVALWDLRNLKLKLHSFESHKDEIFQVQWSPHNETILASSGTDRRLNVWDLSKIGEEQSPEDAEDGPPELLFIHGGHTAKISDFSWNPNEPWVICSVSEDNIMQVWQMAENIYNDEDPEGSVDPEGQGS
# Sequence (Q6ZN18 whole entry partner): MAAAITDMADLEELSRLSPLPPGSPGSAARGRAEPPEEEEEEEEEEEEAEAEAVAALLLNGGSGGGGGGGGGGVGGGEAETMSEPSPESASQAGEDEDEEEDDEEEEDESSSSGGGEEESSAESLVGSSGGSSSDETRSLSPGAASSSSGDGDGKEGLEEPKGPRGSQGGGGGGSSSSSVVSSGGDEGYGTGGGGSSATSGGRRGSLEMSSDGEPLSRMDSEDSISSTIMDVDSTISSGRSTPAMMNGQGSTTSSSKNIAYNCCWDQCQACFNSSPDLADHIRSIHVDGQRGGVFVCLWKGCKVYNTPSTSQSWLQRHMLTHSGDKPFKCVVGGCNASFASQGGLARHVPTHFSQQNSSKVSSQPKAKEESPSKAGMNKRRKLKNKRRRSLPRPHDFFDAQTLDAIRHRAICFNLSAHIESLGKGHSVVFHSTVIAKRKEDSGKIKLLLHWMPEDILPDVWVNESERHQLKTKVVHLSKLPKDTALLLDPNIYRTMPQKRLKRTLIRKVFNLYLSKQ
# Assay: Inhibitory activity against EZH2 methyltransferase (radiometric scintillation proximity assay)
# Experimental conditions: Enzyme inhibitory activity (IC50, nM) EZH2, 2.3 nmol/L enzyme, 90 minutes, room temperature
Endpoint label: IC50 (nM)
Answer in nM, number only, no unit symbol.

// solved cases for IC50 follow
>  <Compound>
CCN[C@H]1CC[C@H](C2(C)Oc3c(C)c4c(c(Cl)c3O2)CCN(Cc2c(C)cc(C)[nH]c2=O)C4=O)CC1 (stereo partly shown)

>  <IC50 [nM]>
3.6

$$$$
>  <Compound>
Cc1cc(C)c(CN2CCc3c(Cl)c4c(c(C)c3C2=O)OC(C)(C[C@H]2CC[C@H](N)CC2)O4)c(=O)[nH]1 (stereo partly shown)

>  <IC50 [nM]>
3.7

$$$$

Now for the compound whose IC50 we want.
Per the record, Cc1cc(C)c(CN2CCc3c(Cl)c4c(c(C)c3C2=O)OC(C)([C@H]2CC[C@H](N)CC2)O4)c(=O)[nH]1 (stereo partly shown) has IC50 of 3.2

---

# Lookup of reported IC50 keyed by entry
# System under test: EZH2 (Homo sapiens)
# Assay: Inhibitory activity against EZH2 methyltransferase (radiometric scintillation proximity assay);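 note: Read-out is substrate peptide methylation, captured on streptavidin-coated SPA beads and counted by scintillation, with the reaction run in Tris-HCl buffer at pH 8.0 containing 1% DMSO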
# Experimental conditions: Enzyme inhibitory activity (IC50, nM) EZH2, 2.3 nmol/L enzyme, 90 minutes, room temperature
Answer in nM, number only, no unit symbol.

// solved cases for IC50 follow
>  <Molecule>
Cc1cc(C)c(CN2CCc3c(C)c4c(c(Cl)c3C2=O)OC(C)([C@H]2CC[C@H](N(C)C)CC2)O4)c(=O)[nH]1 (single isomer, unassigned) [Compound 5]

>  <IC50 (nM)>
1.3

$$$$
>  <Molecule>
CC[C@@H](O)C(=O)N1CCC(C2(C)Oc3c(C)c4c(c(Cl)c3O2)CCN(Cc2c(C)cc(C)[nH]c2=O)C4=O)CC1 (stereo partly shown)

>  <IC50 (nM)>
3.4

$$$$

Per the record, Cc1cc(C)c(CN2CCc3c(C#N)c4c(c(C)c3C2=O)OC(C)([C@H]2CC[C@H](N(C)C)CC2)O4)c(=O)[nH]1 (stereo partly shown) has IC50 of 2.7

Per the record, CC[C@H](O)C(=O)N[C@H]1CC[C@H](C2(C)Oc3c(C)c4c(c(Cl)c3O2)CCN(Cc2c(C)cc(C)[nH]c2=O)C4=O)CC1 (stereo partly shown) has IC50 of 4.4

Per the record, Cc1cc(C)c(CN2CCc3c(Cl)c4c(c(C)c3C2=O)OC(C)([C@H]2CC[C@H](N3CCCC3)CC2)O4)c(=O)[nH]1 (stereo partly shown) has IC50 of 4.3

Per the record, Cc1cc(C)c(CN2CCc3c(C)c4c(c(C)c3C2=O)OC(C)([C@H]2CC[C@H](N)CC2)O4)c(=O)[nH]1 (stereo partly shown) has IC50 of 4.4

Per the record, Cc1cc(C)c(CN2CCc3c(Cl)c4c(c(C)c3C2=O)OC(C)(CCCCN(C)C)O4)c(=O)[nH]1 (stereo not shown) has IC50 of 6.2

Per the record, CCN(C)[C@H]1CC[C@H](C2(C)Oc3c(C)c4c(c(C)c3O2)C(=O)N(Cc2c(OC)cc(C)[nH]c2=O)CC4)CC1 (stereo partly shown) has IC50 of 7

Where these numbers come from: patent US12344618B2
